# Test system: IL-13
# EXPERIMENTAL PROTOCOL: Cytokine assay: IL-13 release from PHA-L stimulated human PBMCs
# Type: cell-based
# REPORTED CONDITIONS: Homo sapiens, PBMC, read-out: IL13 IC50
Classes (IC50): Low (below 300 nM), Medium (300 nM to below 1000 nM), High (1000 nM or more)

CCOc1c(OC)ccc(-c2cccc(C3COB(O)C3)n2)c1F (stereo not shown)    High
COc1cc(C2COB(O)C2)nc(-c2ccc(OC)c(OC3CCCC3)c2)n1 (stereo not shown)    Medium
CCCOc1cc(-c2nc(CC(=O)O)cc(C3COB(O)C3)n2)ccc1OC (stereo not shown)    High
CCCOc1cc(-c2cncc([C@H]3COB(O)C3)c2)ccc1OC    High
CCOc1cc(-c2cncc(C3COB(O)C3)c2)c(F)cc1OC (single isomer, unassigned) [Example 14]    Low

Form field 'band' for CCCOc1cc(-c2cncc(C3=CB(O)OC3)c2)ccc1OC High

// bin(item) where item = CCCOc1cc(-c2cncc(C3COB(O)C3)c2)cnc1OC (stereo not shown) [Example 51] Medium

Which IC50 band matches CCCOc1cc(-c2cncc(C3(CO)COB(O)C3)c2)ccc1OC (stereo not shown) ? High

# classify by IC50 band: CCOc1cc(-c2cncc(C3COB(O)C3)c2)c(Cl)cc1OC (stereo not shown) [Example 47] Low

// provenance: patent US11559538B2
